TESTED TARGET: Inward rectifier potassium channel 2 (Mus musculus) (UniProt P35561)
Sequence (P35561 whole entry, looked up): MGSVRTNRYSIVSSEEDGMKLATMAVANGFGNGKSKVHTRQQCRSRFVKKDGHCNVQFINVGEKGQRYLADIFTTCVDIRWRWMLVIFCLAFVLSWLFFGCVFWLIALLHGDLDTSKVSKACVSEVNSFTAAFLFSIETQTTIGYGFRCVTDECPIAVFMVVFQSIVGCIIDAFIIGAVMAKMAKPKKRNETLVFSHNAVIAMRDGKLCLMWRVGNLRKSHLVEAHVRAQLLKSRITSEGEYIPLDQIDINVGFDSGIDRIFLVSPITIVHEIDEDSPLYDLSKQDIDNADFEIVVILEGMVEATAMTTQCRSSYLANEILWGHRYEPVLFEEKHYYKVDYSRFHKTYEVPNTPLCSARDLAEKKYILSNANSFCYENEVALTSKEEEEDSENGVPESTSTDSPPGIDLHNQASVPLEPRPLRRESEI
RUN DESCRIPTION: blocks the mouse Kir2.1 inward-rectifier potassium channel (AID 1672);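 note: channel flux triggered by added potassium and thallium sulfate stimulus; B-score of peak minus minimum fluorescence over baseline after thallium stimulus; more negative B-score means stronger Kir2.1 block with less thallium influx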
TEST CONTEXT: HEK293-Kir2.1, FluxOR thallium flux fluorescence; at 10 µM; active compounds read low
Among all 310,000 compounds or so, about 2,600 (0.84%) were called active. For the sample, actives were picked, then their nearest neighbours and some compounds at random.
Each record is given y if its reported B-score is strictly below -0.09. Records at or above -0.09 are given n.

Query :: Just wondering, is B-score of `COc1cccc(CNCc2ccc3c(c2)OCO3)c1` below -0.09?
Result :: n

Query :: Next entry: `COc1ccc(NC(=S)NCCN2CCC(C)CC2)cc1`
Result :: y

Query :: Next entry: `O=C(Nc1ccccc1N1CCCC1)c1ccc(F)c(S(=O)(=O)N2CCOCC2)c1`
Result :: y

Query :: Next entry: `Cn1c(-c2ccco2)nc2cc3ccccc3cc21`
Result :: n

Query :: Next entry: c1ccc(C2CNCc3c2ccc2ccccc32)cc1 (stereo not given)
Result :: y

Query :: Next entry: `COc1ccc(C(=O)Nc2ccccc2C(=O)N2CCN(c3ccccc3)CC2)cc1`
Result :: n

Query :: Next entry: `Cc1[nH][nH]c(=O)c1C(c1ccc(-c2ccc(Cl)cc2)o1)c1c(C)[nH][nH]c1=O`
Result :: y

Query :: Next entry: Cc1ccc(OCC(=O)OC(C)CN(C)Cc2ccccc2)cc1 (stereo not given)
Result :: n

Query :: Next entry: `COc1ccc2c(c1)C(C)=CC(C)(C)N2C(=O)Nc1ccccc1`
Result :: y

Query :: Next entry: COc1ccccc1C(CNC(=O)c1cccc(NS(=O)(=O)c2ccc(Br)cc2)c1)N(C)C (stereo not given)
Result :: y

Query :: Next entry: `Cc1noc(C)c1CSCC(=O)Nc1ccc(Br)cc1Cl`
Result :: n

Query :: Next entry: `CCN(CC)CCOCCOc1ccc(Cl)c2ccccc12`
Result :: y

Query :: Next entry: CC(C)CN(C(=O)Cn1c(=O)cnc2ccccc21)C1CCS(=O)(=O)C1 (stereo not given)
Result :: y

Query :: Next entry: `O=C1Nc2cc(C(=O)N3CCC(N4CCCCC4)CC3)ccc2S/C1=C\c1ccccc1`
Result :: y

Query :: Next entry: `COc1ccc(-c2cc(C(=O)N/N=C/c3cccnc3)c3ccccc3n2)c(OC)c1`
Result :: n

Query :: Next entry: CC(=O)C12CC(C)=C(C)CC1CC1C3CCC4=CC(=O)CCC4(C)C3CCC12C (stereo not given)
Result :: n

Query :: Next entry: `CCCCC(=O)NCc1ccc(F)cc1`
Result :: n

Query :: Next entry: CN(Cc1ccccc1)CC(O)COc1ccc(CNCc2cc3ccccc3s2)cc1 (stereo not given)
Result :: y

Query :: Next entry: `CCn1cc(CCC(=O)NCc2ccc(F)cc2)c2ccccc21`
Result :: y

Query :: Next entry: CCC(Cc1ccccc1)NS(=O)(=O)c1ccc2c(c1)NC(=O)CS2 (stereo not given)
Result :: y

Query :: Next entry: `CCc1ccc(C(=O)NNC(=O)C2CCN(c3ncnc4sc(C)c(C)c34)CC2)cc1`
Result :: y

Query :: Next entry: Cc1cc(C)c(S(=O)(=O)NCC(c2ccc3c(c2)OCO3)N2CCOCC2)c(C)c1 (stereo not given)
Result :: y

Query :: Next entry: `CC(C)NC(=S)N1CCN(C(c2ccccc2)c2ccccc2)CC1`
Result :: n

Query :: Next entry: `CN(C)CCOC1c2ccccc2-c2ccccc21`
Result :: n

Query :: Next entry: `CCOc1ccc(S(=O)(=O)N2CCN=C2Cc2ccccc2)cc1C`
Result :: y

Query :: Next entry: `CCCCCN(C(=O)CCC(=O)OCCOc1ccc(OC)cc1)c1c(N)n(CCCC)c(=O)[nH]c1=O`
Result :: n

Query :: Next entry: CN1c2ccccc2-c2nc3ccccc3n2C1c1ccco1 (stereo not given)
Result :: y

Query :: Next entry: `O=C(Cc1ccccc1)NCc1ccc(F)cc1`
Result :: n

Query :: Next entry: `CC(C)(C)n1nc(Cc2cccc3ccccc23)c(C#N)c1N`
Result :: n

Query :: Next entry: `CC1=NCCN1S(=O)(=O)c1cccc([N+](=O)[O-])c1`
Result :: n

Query :: Next entry: `Cc1ccc(S(=O)(=O)N(Cc2cccc([N+](=O)[O-])c2)C(=O)N2CCN(C)CC2)cc1`
Result :: n

Query :: Next entry: `CCN(CC)CCn1cnc2c1c(=O)[nH]c(=O)n2Cc1ccccc1`
Result :: n

Query :: Next entry: CC(O)CNCCOc1cccc(Oc2ccccc2)c1 (stereo not given)
Result :: y

Query :: Next entry: `O=C(O)CN1CCN(C(c2ccccc2)c2ccccc2)CC1`
Result :: n

Query :: Next entry: `CC1CCN(c2ccc(-c3ccc(NC(=O)c4ccco4)cc3)nn2)CC1`
Result :: n

Query :: Next entry: `O=C(NC1CCCCC1)c1ccc(-c2ccc(Cl)cc2)o1`
Result :: n

Query :: Next entry: `CC(C)c1ccc(N2CCN(C(=O)c3ccccc3NC(=O)/C=C(\C(=O)O)c3ccccc3)CC2)cc1`
Result :: y

Query :: Next entry: COc1ccc(OCC(O)CNCCNc2nccc(C(F)(F)F)n2)cc1 (stereo not given)
Result :: y

Query :: Next entry: `Cc1cccc2c1N(CCOc1ccccc1)C(=O)C2=O`
Result :: y

Query :: Next entry: `CC1CCN(C(=O)COC(=O)c2cc(S(=O)(=O)N3CCOCC3)ccc2Cl)CC1`
Result :: y

Query :: Next entry: `CC1(C)NC(=O)N(CCOc2cccc(Oc3ccccc3)c2)C1=O`
Result :: y

Query :: Next entry: `CC(=O)Nc1ccc(C(=O)NNC(=O)CCCCC(=O)NNC(=O)c2ccc(NC(C)=O)cc2)cc1`
Result :: n

Query :: Next entry: CC12CCC(=O)N1C(C(=O)Nc1ccc(F)c(F)c1F)CS2 (stereo not given)
Result :: n

Source of measurements: PubChem BioAssay AID1672
